Recorded measurements of melting point, one per entry

Query: Supply melting point value. Item: Cn1c(=O)oc2c(C(=O)O)cccc21
Response: 309 to 311 °C

Query: For the molecule O=[N+]([O-])c1ccc(NC2CCCC2)cc1 , give its reported melting point.
Response: 86 to 88 °C

Query: Name the recorded melting point of the item Sc1ccc2ccccc2n1 in your answer.
Response: 173 to 176 °C

Query: Give reported melting point value for Cc1c(C(=O)O)oc2ccc(Cl)cc12
Response: 255 to 257 °C

Query: For the molecule Clc1ccc(-c2cc3ncnc(Cl)c3s2)cc1 , report melting point.
Response: 188 to 190 °C

Query: Report melting point, nothing else, for this molecule: CC(Cl)C(=O)c1ccc(NS(C)(=O)=O)cc1 (centres undefined)
Response: 189 to 192 °C

Query: Give a short answer stating reported melting point for CC(NC(=O)CC1CCCCC1)C(=O)O (centres undefined) .
Response: 156 to 158 °C

Query: Dear colleague, please send me the reported melting point for Cn1ccnc1-c1nnc(N)s1 when you can.
Response: 263 to 265 °C

Query: Identify the reported melting point for the following entry. CS(=O)(=O)NCC(=O)c1ccccc1
Response: 113 to 115 °C

Query: Recall and state the measured melting point for CCCn1c(C)nnc1CO .
Response: 59 to 61 °C

Query: Answer with reported melting point of CC(C)Nc1ccc(C#N)cn1
Response: 99 to 101 °C

Query: Identify melting point associated with the molecule O=C(O)C1(c2ccc(OCc3ccccc3)cc2)CCOCC1
Response: 151 to 153 °C

Query: Note down melting point recorded for Cc1cc([N+](=O)[O-])ccc1S(=O)(=O)Cl
Response: 69 to 71 °C

Query: Look up melting point of Brc1cccc2cnoc12 and report it.
Response: 79 to 81 °C

---

Measured melting point, listed per entry for reference.

CC(C)NC(=O)N(C)c1ccc(O)cc1 : 158 to 160 °C
CC(=O)N1c2ccc(S(=O)(=O)Cl)cc2CC1C (centres undefined) : 112 to 114 °C
Cc1cc(Cl)c2cc(OC(F)F)ccc2n1 : 81 to 83 °C
COC(=O)C[C@H](NC(=O)OCC1c2ccccc2-c2ccccc21)C(=O)O : 115 to 117 °C
O=S(=O)(NC1CC1)c1ccc(Cl)nc1 : 94 to 96 °C

Query: Read off the recorded melting point for S=C=Nc1ccc2ccccc2c1
Response: 59 to 61 °C

Query: Quote melting point reported for OCc1ccc(OCc2cccs2)cc1 please.
Response: 68 to 70 °C

Query: For CC(C)C(Br)C(=O)N1CCc2ccccc21 (centres undefined) , write its melting point.
Response: 111 to 113 °C

Query: Indicate the recorded melting point value for this compound: O=C(O)c1noc(-c2ccc(F)cc2)n1
Response: 129 to 131 °C

Query: Respond only with melting point recorded for CC(C)Oc1ccc(S(=O)(=O)Cl)c2ccccc12
Response: 93 to 95 °C

Query: Please list melting point recorded for the compound CCOC(=O)c1cnc2ccc(Cl)cn2c1=O
Response: 137 to 139 °C

Query: Supply recorded melting point for NNC(=O)COc1ccc(OCc2ccccc2)cc1 here.
Response: 142 to 144 °C

Query: Please report the measured melting point for Cc1ccc(-n2nc(C(=O)O)cc2-c2ccc(-c3ccccc3)cc2)cc1
Response: 205 to 207 °C

Query: Using known records, supply melting point for CCOc1ccc(C#N)cn1
Response: 97 to 99 °C

Query: State, in one line, measured melting point of O=S1(=O)N=C2CCCCCN2C(CCl)N1 (centres undefined)
Response: 181 to 183 °C

Query: Recall and state the measured melting point for NC(COc1ccc(Cl)cc1Cl)=NO .
Response: 141 to 144 °C

Query: Give the value of melting point reported for the following: Cc1[nH]c2ccc(Oc3ccccc3)cc2c(=O)c1C
Response: 289 to 291 °C

Query: Annotate the compound N#Cc1cc(C(F)(F)F)ccc1C(=O)O with its measured melting point.
Response: 113 to 115 °C

Query: Report measured melting point; entry is CCOc1cccc2cc(C(C)=O)oc12
Response: 72 to 74 °C

Query: Using the record for NCCNc1ccncc1 , state its measured melting point.
Response: 118 to 120 °C

Query: Assign melting point to the following record: O=C(CCl)NCC#Cc1cccc(C(F)(F)F)c1
Response: 80 to 82 °C

Query: Could you please provide reported melting point for O=S(=O)(c1ccc(N=C=S)cc1)N1CCOCC1 ? Thanks!
Response: 99 to 101 °C

---

MEASURED ATTRIBUTE: melting point

Answered examples (8):
O=C(O)c1sccc1S(=O)(=O)N1CCC(CO)CC1 : 143 to 145 °C
O=c1[nH]c(-c2cccc(F)c2)cs1 : 198 to 200 °C
CC(=O)Nc1ccc(Br)cc1N : 155 to 157 °C
O=C1COCC(=O)N1 : 141 to 143 °C
O=C(O)CC1SC(=Nc2ccccc2)NC1=O (centres undefined) : 202 to 204 °C
Oc1ccccc1-n1ccnc1 : 218 to 220 °C
O=C(O)C1CCN(C2=NS(=O)(=O)c3ccccc32)CC1 : 279 to 281 °C
CC(C)(C)c1ccc(C2(C(=O)O)CCC2)cc1 : 179 to 181 °C

Query: Complete the entry with melting point for CCOC(=O)c1ccc(N2C(=O)Cc3ccccc3C2=O)cc1
Response: 174 to 176 °C

Query: Please give measured melting point of the following entry: COC(=O)NC(C)(C)C(=O)O
Response: 154 to 156 °C

Query: Fill in melting point for record c1ccc(-c2cc[nH]c2)nc1
Response: 126 to 128 °C

Query: Tell us which melting point value is on record for O=c1ccc2c([nH]1)CCC2
Response: 35 to 39 °C

Query: Please look at this compound and report its melting point: NC(CC1CCOC1)C(=O)O (centres undefined)
Response: 269 to 271 °C

Query: Supply recorded melting point for O=C(O)c1c[nH]nc1-c1ccc(Cl)cc1 here.
Response: 276 to 278 °C

Query: Return reported melting point. Input compound: CCOC(O)=C1Nc2ccccc2C1=O
Response: 92 to 94 °C

Query: Note down melting point recorded for COc1cccc(NC2=NC(C)(C)CS2)c1
Response: 105 to 107 °C

---

As shown below, each of these compounds has a reported melting point value.

CC(=O)Nc1nnc(S)s1 : 267 to 269 °C
O=C(O)CSc1nnc(-c2ccc(Cl)cc2Cl)[nH]1 : 161 to 163 °C
NC1CCCCC1O (stereo not drawn) : 162 to 164 °C
CCOC(=O)c1nnc(C)n1C1CC1 : 109 to 111 °C
CN(C)c1nc(Cl)c(C=O)s1 : 109 to 111 °C

Query: Give the reported value of melting point for this record: Nc1cc(-c2c(F)cccc2F)no1
Response: 114 to 116 °C

Query: Give the value of melting point reported for the following: CCS(=O)(=O)N1CCc2cc(C(=O)CCl)ccc21
Response: 231 to 233 °C

---

Here, each record is paired with measured melting point data.

COCC(C)(O)C(=O)O (centres undefined) : 53 to 55 °C

Query: Assign melting point to the following record: COc1ccccc1-c1noc(CCl)n1
Response: 61 to 63 °C

Query: Write down melting point measured for item Cc1nc(Br)ccc1C(=O)O
Response: 155 to 157 °C

Query: Return reported melting point. Input compound: Cc1ccc(-c2n[nH]c(S)nc2=O)cc1
Response: 225 to 227 °C

Query: // fetch melting point given entry O=C(O)CCc1ccc2c(c1)CCO2
Response: 92 to 94 °C

Query: Quick one: give measured melting point for CC(=O)NCCc1cc(C(=O)CCl)ccc1F
Response: 97 to 99 °C

Query: # return recorded melting point for entry COc1ccc(CBr)cc1C#N
Response: 119 to 121 °C

Query: Determine its reported melting point: CC(C)(C)c1ccc(-c2ccc(C(=O)O)o2)cc1
Response: 213 to 215 °C

Query: Using known records, supply melting point for N#Cc1ccc(OCCO)cc1
Response: 85 to 87 °C

Query: Name the recorded melting point of the compound listed here: NC(=O)NCC(=O)O
Response: 174 to 176 °C

Query: Quote melting point reported for O=C(O)Cn1cccn1 please.
Response: 139 to 141 °C

Query: Dear colleague, please send me the reported melting point for BrCc1cc(Br)cc2cccnc12 when you can.
Response: 140 to 142 °C

Query: Provide one value: measured melting point of COC(=O)Nc1ccc(CN)cc1
Response: 103 to 105 °C

Query: Provide melting point value for the following compound: O=c1[nH]cnc2c(-c3ccccc3)nsc12
Response: 256 to 258 °C

Query: Using the record for Cc1cc(C(=O)O)ccc1N1CCNC1=O , state its measured melting point.
Response: 279 to 281 °C

Query: State, in one line, measured melting point of COc1ccc(CCNC(=O)CC(=O)NCCc2ccc(OC)cc2)cc1
Response: 161 to 163 °C
